# Test system: NS5A domain 1+ (WT) (Hepatitis C virus (replicon plasmid …, UniProt Q9WMX2 2005-2221))
# Sequence (Q9WMX2 2005-2221): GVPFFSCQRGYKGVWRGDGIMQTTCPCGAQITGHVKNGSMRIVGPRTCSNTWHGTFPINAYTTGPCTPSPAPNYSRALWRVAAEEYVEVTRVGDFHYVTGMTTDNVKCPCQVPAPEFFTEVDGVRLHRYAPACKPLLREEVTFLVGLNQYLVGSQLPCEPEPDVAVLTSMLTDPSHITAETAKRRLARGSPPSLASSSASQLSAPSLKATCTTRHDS
# Method: fluorescence polarization
Measurement name: Kd (nM)
Answers are plain numbers, in nM.

Binder | Kd / nM
GGGUGGGGGUGG (ssRNA) [RNA 2 (consensus derived)] | 20

Hey, quick one: what's Kd for each of these?
1. GGCUGAGGCAGG (ssRNA) [RNA 1 (consensus sequence 1)]
2. AAAAAAAAAAAAAAA (ssRNA) [RNA 6 (A15)]

Result ::
1. 10
2. 1000

Measured Kd, UGUUUGUUUGUCCC (ssRNA) [RNA 3 (minimal GRE)] : 100
